Target or test system: Mutant CD33-GFP M5 (AEAD), quadruple mutant, on 293FT cells (UniProt P20138)
Sequence (P20138 other isoform, or with tags, fused parts or gaps mutant): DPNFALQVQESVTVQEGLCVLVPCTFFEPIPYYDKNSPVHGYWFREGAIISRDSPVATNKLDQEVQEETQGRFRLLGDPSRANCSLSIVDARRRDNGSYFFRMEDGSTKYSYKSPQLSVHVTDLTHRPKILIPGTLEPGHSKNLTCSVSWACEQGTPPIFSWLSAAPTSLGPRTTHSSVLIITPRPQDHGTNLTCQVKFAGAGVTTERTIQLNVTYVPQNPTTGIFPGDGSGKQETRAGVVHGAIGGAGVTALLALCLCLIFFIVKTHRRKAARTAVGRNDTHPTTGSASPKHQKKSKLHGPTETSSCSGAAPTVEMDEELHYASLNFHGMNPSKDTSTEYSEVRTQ
Protocol details: FACS, mutant CD33-GFP on 293FT cells
FACS binding data values, listed per item
Number only, please.

sdCD33_2 (VHH) VHH: QVQLVQPGGSLRLFCVASEEFFSIYAMGWYRQAPGKQHEMVARFTRDGKITYADSAKGRFTITRDAKNTLNLQMNGLIPEDTAVYYCNINHYWGQGTQVTVSS = 0.41

Could you now look at the following binder, please?
Exercise: Look up FACS binding data: sdCD33_5 (VHH, sdAb from a naive llama phage library; also called 413; sdAb413) VHH: QVQLQESGGGLVQPGGSLRLSCAASGSVFSIYAMAWYRQAPGKQRELVAVITSGGATNYADSVKGRFTISRDIAKKTLYLQMNTLKPEDTAVYYCYAHLLIQPFDRFYDYWGQGTQVTVSS
Key: 0.81
